Source listed as patent US20110143948A1.

test system: ncRNAs (SEQ ID NO 28-89); test: ncRNA arrays of melanocytes, keratinocytes, normal skin, melanoma cell lines and patient samples; design: species or system human; settings: melanoma patient 2 sample compared to normal skin
attributeMeasured: ncRNA array expression, patient 2
Respond with the number and no other words.

// SEQ ID NO 32 (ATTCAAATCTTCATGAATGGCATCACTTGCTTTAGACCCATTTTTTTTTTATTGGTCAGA; DNA, backbone and methylation of C not given here; listed as Homo sapiens) : ncRNA array expression, patient 2 value = 1.211

// SEQ ID NO 62 (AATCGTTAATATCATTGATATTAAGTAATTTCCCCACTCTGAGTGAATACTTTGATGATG; listed as DNA, chemistry not given here; listed as Homo sapiens) : ncRNA array expression, patient 2 value = 1.565

// SEQ ID NO 41 (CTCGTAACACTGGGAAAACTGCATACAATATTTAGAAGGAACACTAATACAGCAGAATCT; listed as DNA, chemistry not given here; listed as Homo sapiens) : ncRNA array expression, patient 2 value = −2.529

###

tested on: ncRNAs (SEQ ID NO 28-89); test: ncRNA arrays of melanocytes, keratinocytes, normal skin, melanoma cell lines and patient samples; parameters: species or system human; details: melanoma patient 4 sample compared to normal skin
attributeMeasured: ncRNA array expression, patient 4
Respond with the number and no other words.

// SEQ ID NO 41 (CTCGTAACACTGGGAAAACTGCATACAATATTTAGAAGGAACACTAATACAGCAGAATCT; listed as DNA, chemistry not given here; listed as Homo sapiens) : ncRNA array expression, patient 4 value = −2.655

// SEQ ID NO 66 (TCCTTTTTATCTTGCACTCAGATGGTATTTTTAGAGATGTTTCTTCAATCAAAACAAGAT; listed as DNA, chemistry not given here; listed as Homo sapiens) : ncRNA array expression, patient 4 value = 2.799

// SEQ ID NO 62 (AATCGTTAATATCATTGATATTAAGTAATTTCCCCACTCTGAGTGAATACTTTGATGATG; listed as DNA, chemistry not given here; listed as Homo sapiens) : ncRNA array expression, patient 4 value = 3.47

// SEQ ID NO 50 (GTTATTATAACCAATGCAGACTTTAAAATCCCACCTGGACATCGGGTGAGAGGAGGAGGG; listed as DNA, chemistry not given here; listed as Homo sapiens) : ncRNA array expression, patient 4 value = −2.102

// SEQ ID NO 55 (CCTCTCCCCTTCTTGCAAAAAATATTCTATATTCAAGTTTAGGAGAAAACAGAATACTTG; listed as DNA, chemistry not given here; listed as Homo sapiens) : ncRNA array expression, patient 4 value = −1.747

// SEQ ID NO 29 (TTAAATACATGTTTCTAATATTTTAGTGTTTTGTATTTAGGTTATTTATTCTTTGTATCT; DNA, backbone and methylation of C not given here; listed as Homo sapiens) : ncRNA array expression, patient 4 value = 3.452

// SEQ ID NO 72 (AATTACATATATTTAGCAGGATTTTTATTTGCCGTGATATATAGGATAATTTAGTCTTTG; listed as DNA, chemistry not given here; listed as Homo sapiens) : ncRNA array expression, patient 4 value = 2.566

// SEQ ID NO 74 (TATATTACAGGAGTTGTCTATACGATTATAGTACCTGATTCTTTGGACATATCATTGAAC; listed as DNA, chemistry not given here; listed as Homo sapiens) : ncRNA array expression, patient 4 value = 2.326

// SEQ ID NO 53 (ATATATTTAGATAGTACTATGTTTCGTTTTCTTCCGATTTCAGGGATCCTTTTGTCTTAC; listed as DNA, chemistry not given here; listed as Homo sapiens) : ncRNA array expression, patient 4 value = −2.08

// SEQ ID NO 43 (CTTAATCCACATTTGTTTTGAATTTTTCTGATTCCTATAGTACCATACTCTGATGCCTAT; listed as DNA, chemistry not given here; listed as Homo sapiens) : ncRNA array expression, patient 4 value = −1.462

// SEQ ID NO 49 (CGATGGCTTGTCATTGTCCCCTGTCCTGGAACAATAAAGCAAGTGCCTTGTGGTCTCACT; listed as DNA, chemistry not given here; listed as Homo sapiens) : ncRNA array expression, patient 4 value = −2.3226

// SEQ ID NO 46 (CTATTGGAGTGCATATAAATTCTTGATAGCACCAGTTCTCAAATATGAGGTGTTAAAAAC; listed as DNA, chemistry not given here; listed as Homo sapiens) : ncRNA array expression, patient 4 value = 1.187

// SEQ ID NO 30 (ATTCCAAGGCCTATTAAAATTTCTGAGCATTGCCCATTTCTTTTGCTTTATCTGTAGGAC; DNA, backbone and methylation of C not given here; listed as Homo sapiens) : ncRNA array expression, patient 4 value = 2.472

// SEQ ID NO 63 (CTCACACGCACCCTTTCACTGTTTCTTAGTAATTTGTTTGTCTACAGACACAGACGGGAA; listed as DNA, chemistry not given here; listed as Homo sapiens) : ncRNA array expression, patient 4 value = −1.396
